Test Readout: melting point

Recorded results for 3 compounds are shown here.
{"Compound": "CCCCCCCCCCOc1cc(N)cc(OCCCCCCCCCC)c1", "melting point": "48 to 50 °C"}
{"Compound": "COCCn1nc2c(N)nc3ccccc3c2c1CC(C)(C)O", "melting point": "171 to 172 °C"}
{"Compound": "CC(C)N=C(NC(C)C)ON=C1CCCCC1", "melting point": "45 to 48 °C"}

QUERY: So what does the record say about melting point for OCc1cc(N2CCCCC2)c(Br)cn1 ?
RESULT: 118 to 119 °C

QUERY: Quick check: melting point of CCn1c(=O)c2c(nc(/C=C/c3ccc(OC(=O)c4ccccc4)c(OC)c3)n2C)n(CC)c1=O ?
RESULT: 234 to 236 °C

QUERY: Item O=C(O)c1ccc(-c2ncn(-c3ccc(OC(F)(F)C(F)(F)F)cc3)n2)cc1 has what recorded melting point?
RESULT: 225 °C

QUERY: melting point lookup needed for Cc1cc(C2=C(C=CC3CC(O)CC(=O)O3)C(C)(C)CC(N3C(=O)CCC3=O)C2)ccc1F (stereo unspecified) , thanks.
RESULT: 71 to 77 °C

QUERY: What does the record list as melting point for Sc1n[nH]c(-n2cccn2)n1 ?
RESULT: 245 to 247 °C

QUERY: Give the measured melting point of CCCn1nc2c(N)nc3ccccc3c2c1CCCc1cc(-c2cccnc2)no1 .
RESULT: 192 to 193 °C

QUERY: Item C=CCOc1ccc(CCNC(=O)NC)cc1OC has what recorded melting point?
RESULT: 81 to 83 °C
